Catalogue of Ki values
Target: 5-hydroxytryptamine receptor 3A (Homo sapiens, UniProt P46098)
Sequence (P46098 whole entry): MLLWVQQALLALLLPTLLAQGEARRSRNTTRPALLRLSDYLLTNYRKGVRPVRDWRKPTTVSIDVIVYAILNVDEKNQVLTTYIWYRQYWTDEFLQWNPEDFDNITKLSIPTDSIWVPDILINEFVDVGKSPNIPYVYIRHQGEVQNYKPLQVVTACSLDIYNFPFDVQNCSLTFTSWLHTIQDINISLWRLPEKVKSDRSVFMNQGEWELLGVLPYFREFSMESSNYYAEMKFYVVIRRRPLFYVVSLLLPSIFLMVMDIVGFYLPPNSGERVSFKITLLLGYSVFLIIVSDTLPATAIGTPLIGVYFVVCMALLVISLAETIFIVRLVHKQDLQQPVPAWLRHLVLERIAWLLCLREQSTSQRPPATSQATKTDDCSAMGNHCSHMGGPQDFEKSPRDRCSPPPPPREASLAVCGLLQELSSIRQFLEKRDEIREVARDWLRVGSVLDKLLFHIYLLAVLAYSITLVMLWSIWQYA

# count of solved cases: 3
Cc1cccc(N2CCN(CCc3ccc4nn[nH]c4c3)CC2)c1C    > 10 µM
COc1ccccc1N1CCN(CCc2ccc3[nH]nnc3c2)CC1    > 10 µM
c1ccc2c(N3CCN(CCc4ccc5[nH]nnc5c4)CC3)cccc2c1    > 10 µM

stdin: Which Ki value is on record for "c1ccc2c(N3CCN(CCc4ccc5[nH]cnc5c4)CC3)cccc2c1" ?
stdout: 5.25 µM

###

species: Homo sapiens; test: Ratio of pKi for 5-HT2A receptor (unknown origin) to pKi for dopamine D2 receptor (unknown origin)
Catalogue of Ratio pKi values
Hey, just send me the number, nothing else.

O=c1[nH]c2ccc(CCN3CCN(c4cccc(C(F)(F)F)c4)CC3)cc2[nH]c1=O    0.77
c1ccc2c(N3CCN(CCc4ccc5[nH]cnc5c4)CC3)cccc2c1    0.89
COc1ccccc1N1CCN(CCc2ccc3[nH]nnc3c2)CC1    0.83

We now examine a further molecule.
stdin: Which Ratio pKi value is on record for "c1ccc(-c2nc3cc(CCN4CCN(c5ccccc5)CC4)ccc3[nH]2)cc1" ?
stdout: 0.82
